The origin of these recorded values is patent US5006533A.

Assay: LD50 (mouse) p.o.
Settings: in vivo, po
Reported LD50 values for a set of compounds
metric: LD50

{"compound": "COc1ccc(Br)c(OC)c1C(=O)NC1CC2CC(O)C(C1)N2Cc1ccc(Cl)cc1 (racemic) [X = Cl]", "observed-value": "> 1000 mg/kg"}
{"compound": "COc1ccc(Br)c(OC)c1C(=O)NC1CC2CC(O)C(C1)N2Cc1ccccc1 (stereo not drawn) [X = H]", "observed-value": "~300 mg/kg"}
{"compound": "COc1ccc(Br)c(OC)c1C(=O)NC1CC2CCC(C1)N2Cc1ccccc1 (stereo not drawn) [A, reference compound]", "observed-value": "~300 mg/kg"}
